All values here come from paper PMC5540273.

# System: CDK4-cyclinD1;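 also: KINOMEscan kinase panel screen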
# setup conditions: concentration: 1 μM, replicates: in singlicate; n = 1
reported endpoint: %Inh (%)
The figure you give is taken to be in %; do not add the unit.

Answered examples (2):
C[C@@H]1CCN(C(=O)CO)C[C@@H]1N(C)c1ncnc2[nH]ccc12 = 0
C[C@H]1CC[C@@H](C(=O)Nc2ccccc2)CN1c1cc(-c2ccc3c(N)n[nH]c3c2)nc(N)n1 = 0

**Query** # query: %Inh of entry CCCc1ccc(S(=O)(=O)NC2CCN(c3ccnc(Nc4ccc(OC)cc4)n3)C2)cc1 (stereo not drawn)
**Result** 25

**Query** What do you have for "COc1ccc(-c2oc3ncnc(N)c3c2-c2ccc(OC)cc2)cc1" ?
**Result** 27

**Query** Now try "Cl.Cl.c1ccc(-c2cc3ccncc3cc2OC2CCNCC2)cc1" .
**Result** 0

**Query** Same thing, different compound: "CSc1ccc(NC2=C(c3ccccc3Cl)C(=O)NC2=O)cc1"
**Result** 61

**Query** Try "Clc1cc(Nc2ncnc3cc[nH]c23)ccc1OCc1ccccn1" next.
**Result** 10

**Query** Another compound to check: "Fc1cccc(COc2ccc(Nc3ncnc4cc[nH]c34)cc2Cl)c1"
**Result** 6

**Query** Query "Nc1nccc2scc(-c3ccc4c(c3)CCN4C(=O)Cc3cc(F)ccc3F)c12" next
**Result** 0
